- target-desc: constitutive 20S proteasome beta5 subunit (Proteasome Macropain subunit MB1) (Homo sapiens, UniProt P28074)
- Sequence (P28074 whole entry): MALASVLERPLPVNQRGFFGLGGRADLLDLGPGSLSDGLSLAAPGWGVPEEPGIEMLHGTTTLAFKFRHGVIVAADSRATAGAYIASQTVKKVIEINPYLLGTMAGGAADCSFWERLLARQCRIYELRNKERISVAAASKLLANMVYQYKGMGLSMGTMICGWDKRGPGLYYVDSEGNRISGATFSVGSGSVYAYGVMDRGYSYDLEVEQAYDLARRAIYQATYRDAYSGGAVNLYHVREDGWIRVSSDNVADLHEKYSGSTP
- protocol-summary: Inhibition of human constitutive 20S proteasome beta5 subunit using suc-LLVY-AMC as substrate at 50 nM after 60 to 120 mins by fluorescence assay relative to control
- measurement-conditions: probe suc-LLVY-AMC
readout-kind: inhibition at 0.05 µM (%)

{"columns": ["mol-smiles", "readout-kind", "units", "lt-gt-eq", "endpoint-result"],
 "data": [
  ["CCCCCC(=O)N[C@H](C(=O)N[C@@H](CCS(C)(=O)=O)C(=O)N[C@@H](CC(C)C)C(=O)[C@@]1(C)CO1)C(C)C", "inhibition at 0.05 µM", "%", "=", 97],
  ["CCCCCC(=O)N[C@@H](C(=O)N[C@@H](CCCC)C(=O)N[C@@H](CC(C)C)C(=O)[C@@]1(C)CO1)C(C)C", "inhibition at 0.05 µM", "%", "≤", 10],
  ["CCCCCC(=O)N[C@H](Cc1c[nH]c2ccccc12)C(=O)N[C@@H](CCCC)C(=O)N[C@@H](CC(C)C)C(=O)[C@@]1(C)CO1", "inhibition at 0.05 µM", "%", "≤", 10],
  ["CCCCCC(=O)N[C@H](C(=O)N[C@@H](CCCC)C(=O)N[C@@H](CC(C)C)C(=O)[C@@]1(C)CO1)C(C)C", "inhibition at 0.05 µM", "%", "=", 89]
]}
